Every entry's value here was drawn from PubChem BioAssay.

experiment: small molecules captured by biotinylated probe aFSTL3 – biochemical, small-molecule microarray, fluorescence 635/667, stem cell growth factor project, primary screen (AID 1064); details: higher = more signal;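 also: measures binding of the biotinylated anti-FSTL3 antibody to printed compounds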
Category scheme (composite z-score): bucket A (below -0.2), bucket B (-0.2 to below 0.1), bucket C (0.1 or more)

Query :: Band of CC(C)(C)N1CC=CC23O[C@@H]4C=CCOC(=O)[C@@H]4[C@H]2C(=O)N(CCO)[C@@H]3C1=O (stereo partly specified) ?
Result :: bucket C

Query :: Please give the result for O=C1O[C@@H](c2ccccc2)[C@@H](c2ccccc2)N2[C@@H](c3ccccc3OCCO)[C@]3(C(=O)Nc4ccc(C#CCCO)cc43)[C@@H](C(=O)NC[C@H](O)c3ccccc3)[C@H]12 too.
Result :: bucket C

Query :: Entry COc1cc(OC)c(C(O)C2C=CC3C(=O)N(c4ccccc4)C(=O)C3N2Nc2ccc(C(C)C)cc2)cc1Br (stereo unspecified) please
Result :: bucket C

Query :: Again, but for CN1C(=O)[C@@H]2[C@@H](CC(COc3ccccc3)=C3[C@@H](CCc4ccccc4)OB(O)C[C@@H]32)C1=O
Result :: bucket B

Query :: Proceed to CN(C)C(=O)[C@]1(Cc2ccccc2)N=C(c2ccc(OCCCO)cc2)O[C@@H]1c1ccccc1CN=[N+]=[N-]
Result :: bucket B

Query :: Entry COc1ccc([Si](C)(C)[C@@H]2[C@@H](CC(=O)N3Cc4ccccc4C[C@H]3CO)O[C@]3(C(=O)N(Cc4ccc(N5CCOC5=O)cc4)c4ccccc43)[C@H]2C)cc1 please
Result :: bucket B

Query :: Would you kindly repeat that for C=C(COC)/C(=C/C[C@H](OC(C)=O)c1ccccc1OCCO)c1cc(C(=O)OC)ccc1OC ?
Result :: bucket A

Query :: And for N#Cc1ccc(C(O)C2C=CC3C(=O)NC(=O)C3N2Nc2ccc(Cl)cc2Cl)cc1 (stereo unspecified) ?
Result :: bucket B

Query :: Same read-out for COc1ccc([Si](C)(C)[C@H]2[C@H](CCO)O[C@@]3(C(=O)N(Cc4ccc(NC(=O)[C@H](C)O)cc4)c4ccccc43)[C@@H]2C)cc1 ?
Result :: bucket B

Query :: Also need O=C(NCCN1CCOCC1)[C@@H]1c2ccccc2C(=O)N(Cc2ccccc2C(F)(F)F)[C@H]1c1ccc(CO)cc1 , thanks.
Result :: bucket A

Query :: What about CC(C)=CCCC=C(C)C(O)C1C=CC2C(=O)N(c3ccccc3)C(=O)C2N1Nc1ccc(C#N)cc1 (stereo unspecified) ?
Result :: bucket C

====

molecular target: Epidermal growth factor receptor (Homo sapiens); experiment: compounds binding epidermal growth factor receptor – biochemical, small-molecule microarray, 635 nm fluorescence, primary screen (AID 1104); details: EGFR binding, higher = more signal;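 also: score merges 667 nm emission intensity with spot signal to noise over triplicate slides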
Label class 1 when composite z-score is at or above 0.3; otherwise label class 0.

Example entries begin here.
>>> label_value("CCC(CC)C(O)C1C=CC2C(=O)N(c3ccccc3)C(=O)C2N1Nc1ccccc1F (stereo not given)")
"class 0"
>>> label_value("COC(=O)[C@@]1(Cc2ccc(F)cc2)[C@H]2c3cc(C(=O)N(C)C)n(CCc4ccc(O)c(O)c4)c3C[C@H]2CN1C(=O)c1ccccc1")
"class 0"
>>> label_value("CC(C)=CCCC(C)=CC(O)C1C=CC2C(=O)NC(=O)C2N1Nc1ccccn1 (stereo not given)")
"class 1"

Query :: Entry C=CCN1Cc2ccccc2[C@H]2OC(c3ccc(OCCCO)cc3)=N[C@@]2(CCS(=O)(=O)c2ccccc2)C1=O : is its composite z-score no less than 0.3?
Result :: class 1

Query :: Would you kindly repeat that for COc1ccc([Si](C)(C)[C@@H]2[C@@H](CC(=O)N(CCO)Cc3ccccc3)O[C@]3(C(=O)N(Cc4ccc(N5C(=O)c6cccc7cccc5c67)cc4)c4ccccc43)[C@H]2C)cc1 ?
Result :: class 1

====

experiment: plasmodial surface anion channel blockers, osmotic lysis – cell-based, P. falciparum Indochina, OD700, 1 h, primary screen (AID 1154); settings: P. falciparum Indochina infected RBC osmotic lysis, higher = more signal, called active from +8 up or from −8 down
measured_property: z-score
One number for each entry.

>>> value("CCCC[C@H]1C[C@@H]1[C@@H]1N(C(C)=O)[C@H](c2cccc(OC)c2)CC12CC2")
3.6
>>> value("COC(=O)[C@@]1(Cc2ccc(OC)cc2)[C@H]2c3cc(C(=O)N4CCCC4)n(Cc4c(CO)[nH]cc(C)c4=O)c3C[C@H]2CN1C(=O)c1ccccc1")
0.843
>>> value("[N-]=[N+]=Nc1ccccc1C[C@]1(C(=O)N2CCOCC2)N=C(c2ccc(OCCCO)cc2)O[C@H]1c1ccccc1N=[N+]=[N-]")
30.7
>>> value("COC(=O)[C@@]1(Cc2ccc(F)cc2)[C@H]2c3cc(C(=O)N(C)C)n(C)c3C[C@H]2CN1C(=O)c1ccccc1")
0.404
>>> value("CN1C(=O)C2C(C3CC3)C=C3CN(Cc4cccc(Cl)c4)[C@@H]([C@@H](O)Cc4ccccc4)C3C2C1=O (some centres not stated)")
8.18
>>> value("O=C1C2C=CC(C(O)C3CCCCC3)N(n3cnnc3)C2C(=O)N1Cc1ccccc1 (configuration not stated)")
2.45

Return reported z-score values for all items listed beneath this line.
1. C=C(COC)C(=O)CC[C@@H](OC(C)=O)c1ccccc1OCCO
2. O=C(NC1CC1)[C@@H]1c2ccccc2C(=O)N(Cc2ccc(OC(F)(F)F)cc2)[C@H]1c1ccc(CO)cc1
3. COCCOC(=O)N1C(=O)[C@@]2(c3cc(C#CCC(C(=O)OC)C(=O)OC)ccc31)[C@H](C(=O)Nc1nc3ccccc3s1)[C@H]1C(=O)O[C@H](c3ccccc3)[C@H](c3ccccc3)N1[C@@H]2c1ccc(OCCO)cc1
4. C=CCC(OC(C)=O)[C@@H]1[C@@H](N(Cc2ccc(-c3ccccc3)cc2)C(=O)c2cccc3ccccc23)c2cc(OCCCO)ccc2N1C(=O)Cc1ccc(OC)cc1 (some centres not stated)
5. COCCCN1C(=O)[C@@]2(c3ccc([N+](=O)[O-])cc3)CC(=O)N(CC34CC5CC(CC(C5)C3)C4)[C@@H]2c2ccc(CO)cc21

Result ::
1.73
1.49
5.5
0.53
-0.409

====

biological target: Dihydroorotate dehydrogenase (quinone), mitochondrial (Plasmodium falciparum (isolate 3D7)) (UniProt Q08210); assay: inhibition of P. falciparum DHODH – biochemical, C-terminal His tag, absorbance 600 nm, primary screen (AID 1175); conditions: PfDHODH enzyme, DCIP absorbance 600 nm; higher = more signal, called active from +8 up or from −8 down;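 also: recombinant parasite enzyme with a five histidine tag at its C terminus; test concentration not given here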
Sequence (Q08210 whole entry, looked up): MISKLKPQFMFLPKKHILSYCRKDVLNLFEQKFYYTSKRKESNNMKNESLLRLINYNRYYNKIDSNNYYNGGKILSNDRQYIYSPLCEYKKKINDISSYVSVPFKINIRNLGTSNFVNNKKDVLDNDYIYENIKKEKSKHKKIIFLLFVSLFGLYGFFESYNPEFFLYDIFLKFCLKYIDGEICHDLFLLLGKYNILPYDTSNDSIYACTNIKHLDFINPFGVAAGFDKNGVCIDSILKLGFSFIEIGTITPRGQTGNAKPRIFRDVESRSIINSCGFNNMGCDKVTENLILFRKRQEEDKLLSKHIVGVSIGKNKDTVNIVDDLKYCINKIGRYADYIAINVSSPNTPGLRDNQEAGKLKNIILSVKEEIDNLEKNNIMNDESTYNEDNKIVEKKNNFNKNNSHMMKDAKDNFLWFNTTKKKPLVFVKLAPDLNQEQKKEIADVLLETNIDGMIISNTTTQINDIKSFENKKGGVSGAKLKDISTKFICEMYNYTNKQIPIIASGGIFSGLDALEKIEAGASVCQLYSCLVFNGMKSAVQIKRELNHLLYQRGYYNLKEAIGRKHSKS
measured_property: composite z-score
Give bare numbers.

>>> value("CC1=C([C@H](O)CCc2ccccc2)[C@H](CO)n2c(=O)n(-c3ccccc3)c(=O)n2C1")
-1.34
>>> value("O=C(NC1CC1)[C@@H]1c2ccccc2C(=O)N(Cc2cc(C(F)(F)F)cc(C(F)(F)F)c2)[C@H]1c1ccc(CO)cc1")
-0.331
>>> value("CC(C)(C)OC(=O)CC[C@@]1(C(=O)NCCN2CCOCC2)N=C(c2ccc(OCCCO)cc2)O[C@@H]1c1ccccc1CN=[N+]=[N-]")
-0.918

Would you kindly look at the next entry?
Query :: Entry CN(C)CCCNC(=O)[C@@]1(C)c2ccccc2C(=O)N(Cc2ccc(OC(F)(F)F)cc2)[C@H]1c1ccc(CO)cc1 : reported composite z-score = ?
Result :: -0.397

====

molecular target: Homeobox protein Hox-A13 (Mus musculus) (UniProt Q62424); assay: disruptors of Hoxa13 oligonucleotide interaction – biochemical, fluorescence polarization, labeled oligonucleotide, primary screen (AID 1185); details: Hoxa13:DNA binding, 15 min, higher = more signal, called active from +8 up or from −8 down
Sequence (Q62424 whole entry, looked up): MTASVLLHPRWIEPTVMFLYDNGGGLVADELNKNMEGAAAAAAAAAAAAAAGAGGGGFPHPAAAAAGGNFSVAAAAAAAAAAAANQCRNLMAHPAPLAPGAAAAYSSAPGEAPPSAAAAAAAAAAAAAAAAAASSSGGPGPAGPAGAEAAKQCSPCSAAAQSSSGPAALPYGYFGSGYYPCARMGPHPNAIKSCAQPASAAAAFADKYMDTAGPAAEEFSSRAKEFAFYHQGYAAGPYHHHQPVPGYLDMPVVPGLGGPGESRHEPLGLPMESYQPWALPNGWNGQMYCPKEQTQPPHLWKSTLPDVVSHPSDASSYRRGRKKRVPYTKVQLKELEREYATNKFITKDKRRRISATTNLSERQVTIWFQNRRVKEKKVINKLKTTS
Records here are stratified by z-score; strata: band 1 = under -4, band 2 = from -4 up to -2, band 3 = -2 and over

Check out these entries, answers already filled in.
>>> label_value("COc1ccc(C(=O)Nc2cccc(CN3C(=O)[C@]4(O[C@H](CC(=O)N5Cc6ccccc6C[C@H]5CO)[C@@H]([Si](C)(C)c5ccc(OC)cc5)[C@@H]4C)c4ccccc43)c2)cc1")
"band 2"
>>> label_value("C=CC[C@@]1(C(=O)OC)N=C(c2ccc(OCCCO)cc2)O[C@@H]1c1ccccc1N=[N+]=[N-]")
"band 2"
>>> label_value("C=CCC(OC(C)=O)[C@@H]1[C@@H](N(Cc2cccc3ccccc23)C(=O)Cc2ccc(OC)cc2)c2cc(OCCCO)ccc2N1C(=O)c1ccc2ccccc2c1 (some centres undefined)")
"band 2"
>>> label_value("COCCOC(=O)N1C(=O)[C@@]2(c3cc(C#CCC(C(=O)OC)C(=O)OC)ccc31)[C@H](C(=O)Nc1nc3ccccc3s1)[C@H]1C(=O)O[C@H](c3ccccc3)[C@H](c3ccccc3)N1[C@@H]2c1ccc(OCCO)cc1")
"band 3"
>>> label_value("C=CCC(OC(C)=O)[C@@H]1[C@@H](N(Cc2ccc(-c3cccc(C(F)(F)F)c3)o2)C(=O)Cc2ccc(F)cc2)c2cc(OCCCO)ccc2N1C(=O)Cc1ccc2ccccc2c1 (some centres undefined)")
"band 3"

Query :: Category of COC(=O)c1cccc([C@H]2OC(=CC(=O)OC(C)C)C[C@@H](c3cccc(C(=O)OC)c3)O2)c1 :
Result :: band 1

Query :: # repeat for N#Cc1ccc(-c2cccc(=O)o2)cc1
Result :: band 3

Query :: What do you get for Cc1ccc(S[C@]2(C(=O)NCCCN(C)C)CC(=O)N(Cc3ccccc3C(F)(F)F)[C@@H]2c2ccc(CO)cc2I)cc1 ?
Result :: band 2

Query :: Also need CC(C)NC(=O)[C@@H]1c2ccccc2C(=O)N(Cc2ccccc2C(F)(F)F)[C@H]1c1ccc(CO)cc1 , thanks.
Result :: band 2

Query :: Query C=CC1c2cc(O)c(OC)cc2CCN1C (centres undefined) next
Result :: band 2

Query :: Follow-up item: Cc1ccccc1C(O)C1C=CC2C(=O)N(c3ccccc3)C(=O)C2N1Nc1ccccc1 (centres undefined)
Result :: band 2

Query :: Check CCOC(=O)C1=CC[C@@H](c2ccccc2)N(S(=O)(=O)c2ccc(C)cc2)[C@H]1c1ccccc1I too.
Result :: band 3

Query :: Cool, now C=CCNC(=O)[C@H]1[C@@H]2C(=O)O[C@@H](c3ccccc3)[C@@H](c3ccccc3)N2[C@@H](c2ccc(OCCO)cc2)[C@]12C(=O)Nc1ccccc12
Result :: band 1

Query :: How about C=CCNC(=O)[C@H]1[C@@H]2C(=O)O[C@@H](c3ccccc3)[C@@H](c3ccccc3)N2[C@@H](c2ccc(OCCO)cc2)[C@]12C(=O)Nc1ccc(C#CC3(O)CCCCCC3)cc12 ?
Result :: band 3

Query :: Would you mind doing Cc1ccc(S[C@]2(C(=O)NCc3ccccc3)CC(=O)N(Cc3ccccc3C(F)(F)F)[C@@H]2c2ccc(CO)cc2)cc1 as well?
Result :: band 3

Query :: And what about the compound CC(C)C(=C=CC[C@H](O)c1ccccc1OCCO)C[C@H](O)COCc1ccccc1 ?
Result :: band 1
